Ref: paper PMC2922490

# Type: in vitro ADME
# CONDITION_INFO: rat protein binding
PPB (r) (% free) of 0.3 % free or higher: Criterion met. Under 0.3 % free: Criterion not met.

Worked set:
MOL_SMILES | ANSWER_LABEL
CN(c1ccccc1Cl)S(=O)(=O)c1ccc(NC(=O)c2nccs2)cc1 | Criterion met
CN(c1ccccc1Cl)S(=O)(=O)c1ccc(NC(=O)c2ccncn2)cc1 | Criterion met
COc1ccccc1NS(=O)(=O)c1ccc(NC(=O)c2ccccn2)cc1OC | Criterion met

Does the reported PPB (r) (% free) for O=C(Nc1ccc(S(=O)(=O)Nc2ccccc2Cl)cc1)c1nccs1 fall at or above the 0.3 % free mark?
Criterion not met

Does the reported PPB (r) (% free) for Cc1cc(C)c(NS(=O)(=O)c2ccc(NC(=O)c3ccco3)cc2)c(C)c1 fall at or above the 0.3 % free mark?
Criterion met
